Each entry below carries its reported inhibition.
Test: growth inhibition of yeast control strain, primary screen, counter-screen for post-Golgi transport modulator project (AID 738)
Details: efflux-deficient yeast background strain, growth absorbance A615, 16 h; at 10 µM; active compounds read high
Among all 98,000 compounds or so, about 4,900 (5%) were called active. The list comes from a sample in which actives are over-represented; it also holds close analogues and randomly drawn compounds.
Give the quantity in %, number only.

Illustrative cases are given below, each with its answer.
| Compound | inhibition / % |
| --- | --- |
| CC(CN1CCOCC1)c1ccccc1 (configuration not stated) | 5.77 |
| O=C(Nc1ncc2c(n1)-c1ccccc1OC2)c1ccc(Cl)cc1 | 22.5 |
| O=C(O)COc1ccc(-c2nccc(-c3cccs3)n2)cc1 | 0.28 |

query: Please look up its inhibition: CCOC(=O)c1sc(C)c2c1NC(C)(c1cccc3ccccc13)NC2=O (configuration not stated)
result: 30.4

query: Item under review: COc1ccc2[nH]c3ccc(OC)cc3c2c1 . Reported inhibition?
result: 8.06

query: State the recorded inhibition for this entry: COc1ccc2[nH]cc(/C=C(/C#N)S(=O)(=O)c3ccccc3)c2c1
result: 36.8

query: Request the reported inhibition associated with Cc1ccccc1NC(=S)Nc1cccc([N+](=O)[O-])c1
result: -0.57

---

Assay: growth inhibition of yeast control strain, primary screen, counter-screen for post-Golgi transport modulator project (AID 738)
Conditions: efflux-deficient yeast background strain, growth absorbance A615, 16 h; at 10 µM
Out of some 98,000 compounds screened, about 4,900 (5%) were called active. Rule as the data show it: active = inhibition above about 30%; inactive = the rest. Shown is part of a subset that was picked to be rich in actives.
Hi there, use one of these labels in your reply, thanks! 1.0 (active), 0.0 (inactive)

| Compound | Label |
| --- | --- |
| CCOc1cc2[nH]c(=S)n(CCCN3CCCC3=O)c(=O)c2cc1OCC | 1.0 |

query: Which outcome did this test record for the compound CCOc1cc(NC(=O)c2ccco2)c(OCC)cc1NC(=O)COc1ccccc1 ?
result: 0.0

query: How was O=C(NC12CC3CC(CC(C3)C1)C2)N1CCCC(CO)C1 (centres undefined) classified in this test?
result: 0.0

query: Outcome? CCCC(C(=O)NCc1ccco1)N(C(=O)CNS(=O)(=O)c1ccccc1)C1CCCC1 (centres undefined)
result: 0.0

query: What did this assay record as the result for O=C(Nc1ccc(Oc2ccccc2)cc1)c1ccco1 ?
result: 0.0

query: Please indicate how the test categorized CCn1c(SCC(=O)Nc2ccc(OC)c(OC)c2)nnc1-c1c[nH]c2ccccc12 .
result: 0.0

query: In this assay, the call recorded for COc1ccc(-c2ccc(Nc3ccc(S(=O)(=O)N4CCCC4)cc3)nn2)cc1OC was what?
result: 0.0

query: // outcome(item) with item = CO/N=C/c1ccc(N2CCN(C(=O)c3cccc(Cl)c3)CC2)c([N+](=O)[O-])c1
result: 0.0

query: In this assay, the call recorded for O=C(NC1=NCCS1)[C@H](Cc1ccccc1)N1C(=O)c2ccccc2C1=O was what?
result: 0.0

---

Test: growth inhibition of yeast control strain, primary screen, counter-screen for post-Golgi transport modulator project (AID 738)
Conditions: efflux-deficient yeast background strain, growth absorbance A615, 16 h; at 10 µM; active compounds read high
Out of some 98,000 compounds screened, about 4,900 (5%) were called active. For the sample, actives were picked, then their nearest neighbours and some compounds at random.
Result Type: inhibition (%)
Report the value in % with no unit label.

Check out these entries, answers already filled in.
| Compound | Result Type | Experimental Result |
| --- | --- | --- |
| CCOc1ccc(S(=O)(=O)Nc2nc3cc(OC)ccc3s2)cc1 | inhibition | 2.89 |
| CC(Sc1nnc(Cc2ccc([N+](=O)[O-])cc2)o1)C(N)=O (stereo not drawn) | inhibition | 5.64 |

query: What does the record list as inhibition for OC(COc1ccc2c(c1)CCC2)CN1CCN(c2cccc(Cl)c2)CC1 (stereo not drawn) ?
result: 82.4

query: Given the compound CC1CC(C)CN(C/C=C/c2ccccc2[N+](=O)[O-])C1 (stereo not drawn) , what is its reported inhibition?
result: 7.64

query: What inhibition value was documented for this compound, OC(COc1cccc(OCC(O)CN2CCCC2)c1)CN1CCCC1 (stereo not drawn) ?
result: 0.3

query: Name the recorded inhibition for O=C1CN(c2nc(-c3ccccc3)c3cc(Br)ccc3n2)c2ccccc2N1 .
result: 6.52

query: Recorded inhibition for COc1ccc(CNC(=O)C2CCC(CNc3c(N4CCOCC4)c(=O)c3=O)CC2)cc1 (stereo not drawn) , please?
result: 3.7

query: Endpoint output: inhibition of CCC(=O)c1ccc(OCC(O)CN2CC(C)OC(C)C2)cc1 (stereo not drawn) . Value?
result: 30.9

query: Look up inhibition for this compound: Cc1ccc(-c2nc3ccccc3[nH]2)cc1NC(=O)c1sc2ccccc2c1Cl
result: 12.1

query: Need inhibition, item CC(=O)Nc1ccc(N2C(=O)C3C4CC(=O)C(c5ccccc54)C3C2=O)cc1 (stereo not drawn)
result: -8.39

query: What value of inhibition has been reported for the following compound? O=S(=O)(c1ccc(OCC(O)CN2CCN(c3ccccc3Cl)CC2)cc1)N1CCOCC1 (stereo not drawn)
result: -0.44

query: Given the compound Brc1ccc(/C=N/N2CCN(C3c4ccccc4-c4ccccc43)CC2)s1 , what is its reported inhibition?
result: -3.33

query: For the compound C/C=C/C(=O)OCC(=O)Nc1ccc(F)cc1Cl , what inhibition is on record?
result: 3.31

query: Recorded inhibition of CCC(=O)c1ccc(OCC(O)CN2CCN(c3cccc(C(F)(F)F)c3)CC2)cc1 (stereo not drawn) , please.
result: 38.7

query: May I ask what inhibition has been recorded for CCN(Cc1cc2cc(C)ccc2[nH]c1=O)S(=O)(=O)c1ccccc1 ?
result: 32.2

query: I would be grateful if you could share the reported inhibition for COc1cccc(N2CCN(C(=O)Nc3ccc4c(c3)NC(=O)CO4)CC2)c1 .
result: 4.59

query: Using the record for CN(C(=O)CSc1nnc(N)s1)c1c(N)n(Cc2ccccc2)c(=O)[nH]c1=O , report its inhibition.
result: 7.66

query: Would you kindly share the measured inhibition for CCCCNCc1ccc(SC)cc1 ?
result: 3.73

---

inhibition values by entry
Test: growth inhibition of yeast control strain, primary screen, counter-screen for post-Golgi transport modulator project (AID 738)
Settings: efflux-deficient yeast background strain, growth absorbance A615, 16 h; at 10 µM; active compounds read high
About 4,900 (5%) of roughly 98,000 compounds were called active. The sample holds actives, similar compounds and a random draw of the others, so the mix is not that of the screen.
Enter your answer as a number in %; do not include the unit.

Worked set:
| Molecule | inhibition / % |
| --- | --- |
| O=c1c2ccccc2nc2n1C(CSCc1cccc(C(F)(F)F)c1)CS2 (centres undefined) | 4.97 |
| CCn1c(=O)c(=O)n(CC)c2cc(S(=O)(=O)N3CCc4ccccc43)ccc21 | 12.6 |
| CSc1nc2ccc(S(=O)(=O)N3CCc4ccccc43)cc2s1 | 52 |
| O=C(COc1ccc(Cl)cc1)Nc1ccccc1CO | 36.8 |

# input for lookup
query: I am curious: what inhibition value has been reported for O=C(NCCCN1CCOCC1)c1cc2c(s1)CCC2 ?
result: -14.4

---

Assay: growth inhibition of yeast control strain, primary screen, counter-screen for post-Golgi transport modulator project (AID 738)
Details: efflux-deficient yeast background strain, growth absorbance A615, 16 h; at 10 µM; active compounds read high
In all, about 98,000 compounds went through this assay and about 4,900 (5%) were called active. For the sample, actives were picked, then their nearest neighbours and some compounds at random.
Below is a list of entries, each paired with its recorded inhibition value.
Hi! Could you send only the number? It should be in %, unit omitted.

query: Form field: reported inhibition of CCOC(=O)c1cccc(NC(=O)CN(c2ccc(C)cc2)S(=O)(=O)c2c(C)noc2C)c1
result: 26.9

query: Name the recorded inhibition for N/C(Cc1ccc([N+](=O)[O-])cc1)=N\OC(=O)COc1ccc2ccccc2c1 .
result: 18.8

---

Experiment: growth inhibition of yeast control strain, primary screen, counter-screen for post-Golgi transport modulator project (AID 738)
Conditions: efflux-deficient yeast background strain, growth absorbance A615, 16 h; at 10 µM; active compounds read high
Out of some 98,000 compounds screened, about 4,900 (5%) were called active. Only a selection was taken, and actives are over-represented in it overall.
# reported inhibition; entries follow
Just the number in %, nothing appended.

| Compound | Measurement Unit | inhibition |
| --- | --- | --- |
| Cc1cc2cc(CN(Cc3cccs3)Cc3nnnn3CC3CCCO3)c(=O)[nH]c2cc1C (stereo not drawn) | % | 37.9 |
| CCCCC(CCC(=O)Nc1ccc(C(=O)OCC)cc1)C(=O)O (stereo not drawn) | % | -4.81 |
| CC1(C)CCCC2=C1CC1C(=O)N(c3ccccc3)C(=O)C1C2 (stereo not drawn) | % | 18.5 |
| Cc1ccsc1-c1nc(CSCC(=O)NCCN2CCCC2)c(C)o1 | % | 34.5 |
| Cc1ccc2nc(/C(C#N)=C\c3ccc(OC(=O)c4cccs4)cc3)[nH]c2c1 | % | -11.1 |

query: So what's the measured inhibition for this one? Cc1cc([N+](=O)[O-])c(-c2ccc(/C=N/n3cnnc3)o2)cc1Cl
result: 19.7

query: Bench note: what inhibition did Cc1ccc(-c2nc3c(cnn3-c3ccccc3)c(=O)o2)cc1 show?
result: 15.6

query: Fill in the blank: the reported inhibition of O=C(COc1ccccc1)NCc1ccc2c(c1)OCO2 is ____.
result: 9.88

query: Look at this compound and give its reported inhibition. COCCNc1nc(-n2nc(C)cc2C)nc2sc3c(c12)CCCC3
result: 31.4

query: Query: inhibition; subject: Cc1cc(OC(=O)c2ccc(Cl)cc2)cc(=O)n1C
result: -4.12

query: Item COc1ccc2[nH]c(=O)c(CN(Cc3nnnn3CCc3ccccc3)CC3CCCO3)cc2c1 (stereo not drawn) has what recorded inhibition?
result: 5.93

query: Given the compound O=C(CNC(=O)c1cc2c(s1)CCC2)Nc1ccccc1Br , what is its reported inhibition?
result: -4.14

query: Which inhibition value belongs to COc1ccc(C(c2nnnn2C2CCCCC2)N2CCN(c3ccccc3F)CC2)cc1 (stereo not drawn) ?
result: 50.5
